Where do these numbers come from? They come from BindingDB's records for doi:10.1021/jm00115a012.

Experimental system: UniProtKB P14416
Test name: ChEBML_59152
pKi: −log10 of the molar value.
Classify by measured pKi: Condition met if it is equal to or exceeds 6, Condition not met if it is smaller.

Previously resolved entries follow.
compound="CN1CCc2cc(Br)c(O)cc2C(c2ccc(NC(=S)Nc3ccc4c(c3)C(=O)OC43c4ccc(O)cc4Oc4cc(O)ccc43)cc2)C1 (stereo unspecified)" label_class="Condition not met"
compound=O=C(CCCN1CCC2(CC1)C(=O)N(CCc1ccc(Nc3ccc([N+](=O)[O-])c4n[o+][n-]c34)cc1)CN2c1ccccc1)c1ccc(F)cc1 label_class="Condition met"
compound="CN1CCc2cc(Br)c(O)cc2C(c2ccc(N)cc2)C1 (stereo unspecified)" label_class="Condition not met"
compound="CCCN(CCc1ccc(NC(=S)Nc2ccc3c(c2)C(=O)OC32c3ccc(O)cc3Oc3cc(O)ccc32)cc1)C1CCc2c(O)cccc2C1 (racemic)" label_class="Condition met"

Please look at the following compound next.
Query: Confirm if pKi reported for the compound `CCCN(CCc1ccc(NC(=S)Nc2ccc3c(c2)C(=O)OC32c3ccc(O)cc3Oc3cc(O)ccc32)cc1)[C@H]1CCc2c(O)cccc2C1` is 6 or above.
Result: Condition met

====

Ki overview
Experimental system: D(2) dopamine receptor (Homo sapiens, UniProt P14416)
Sequence (P14416 whole entry): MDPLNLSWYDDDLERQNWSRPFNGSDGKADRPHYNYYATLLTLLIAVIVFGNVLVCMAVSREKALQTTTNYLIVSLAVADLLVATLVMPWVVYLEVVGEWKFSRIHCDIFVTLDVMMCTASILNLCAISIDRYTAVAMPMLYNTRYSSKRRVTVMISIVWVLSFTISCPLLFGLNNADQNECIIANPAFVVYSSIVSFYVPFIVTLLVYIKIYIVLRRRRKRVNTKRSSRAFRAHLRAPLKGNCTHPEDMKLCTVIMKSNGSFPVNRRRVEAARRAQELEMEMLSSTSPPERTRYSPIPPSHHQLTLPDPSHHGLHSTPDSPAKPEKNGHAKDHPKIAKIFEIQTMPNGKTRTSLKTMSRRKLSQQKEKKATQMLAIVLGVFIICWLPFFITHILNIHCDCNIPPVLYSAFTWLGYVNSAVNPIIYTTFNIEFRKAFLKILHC
Test name: Binding affinity against dopamine receptor D2 by using [3H]spiperone as radioligand in caudate-putamen of monkey
Lab book: enter the figure in nM, no units written.

For orientation, consider the following solved cases.
molecule=CCCN(CCc1ccc(C)cc1)[C@H]1CCc2c(O)cccc2C1 observable=Ki result_number=6.7
molecule=CCCN(CCc1ccc(C)cc1)[C@@H]1CCc2c(O)cccc2C1 observable=Ki result_number=170
molecule="CCCN(CCc1ccc(N)cc1)C1CCc2c(O)cccc2C1 (racemic)" observable=Ki result_number=6.8

Record summary for `CCCN(CCc1ccc(NC(=S)Nc2ccc3c(c2)C(=O)OC32c3ccc(O)cc3Oc3cc(O)ccc32)cc1)[C@@H]1CCc2c(O)cccc2C1` : reported Ki = 110

Record summary for CCCN(CCc1ccc(Nc2ccc([N+](=O)[O-])c3n[o+][n-]c23)cc1)C1CCc2c(O)cccc2C1 (stereo not given) : reported Ki = 0.45

====

Experimental system: D(1A) dopamine receptor
Test name: Binding affinity against dopamine receptor D1 by using [3H]-SCH- 23390 as radioligand in caudate-putamen of monkey
pKi overview
Worth noting: pKi values are minus log10 of concentrations stated in mol/L.

compound="O=C1OC2(c3ccc(O)cc3Oc3cc(O)ccc32)c2ccc(NC(=S)Nc3ccc(C4CNCCc5cc(O)c(O)cc54)cc3)cc21 (centres undefined)" result_number=5.00
compound=CCCN(CCc1ccc(C)cc1)[C@H]1CCc2c(O)cccc2C1 result_number=6.57
compound=CCCN(CCc1ccc(C)cc1)[C@@H]1CCc2c(O)cccc2C1 result_number=5.31

Note: attention shifts to another entry.
Value sought: pKi, system D(1A) dopamine receptor, item CCCN(CCc1ccc(N)cc1)C1CCc2c(O)cccc2C1 (racemic) . Result: 6.15
